Value source: patent US5610299A

// reported IC50 for each item listed
# measured-on: GABAa receptor
# measurement-protocol: GABAa receptor binding activity ([3H]-RO15-1788 displacement, rat cortical tissue)
# run-parameters: 0.5 nM [3H]-RO15-1788, 30 min at 4° C., nonspecific with 1.0 μM diazepam
Report as a plain number; the unit nM is understood.

compound-structure-string: COc1ccc(F)c(-c2ncc3[nH]c4ccccc4n3c2=O)c1
recorded-measurement: 167

Output measured IC50 for this item: `O=c1c(-c2ccccc2)ncc2[nH]c3ccccc3n12` 93

Output measured IC50 for this item: `COc1ccc(-c2ncc3[nH]c4ccccc4n3c2=O)cc1` 15

Output measured IC50 for this item: `COc1cccc(-c2ncc3[nH]c4ccccc4n3c2=O)c1` 61
